# Tested on: NCI-H522
# test-name: NCI tumour cell line growth inhibition, 48 h
The source made the active and inactive calls. Rule as the data show it: active = GI50 up to about 1.1 µM and inactive = higher.
This section presents compounds with their documented GI50 values.

> print(dat)
                                   compound  target.desc            observed
1  CO[C@H]1O[C@@H]2CO[C@@H](c3ccccc3)O[C@H]2[C@@H]2C/C=C\CCC[C@@]12O     NCI-H522  20.1 µM (inactive)
2  Nc1nc(Cl)c(N)c(NCC2(CO)CCC(CCc3ccccc3)C2)n1 (stereo not given)     NCI-H522  10.4 µM (inactive)
3  Cc1cc(S(=O)(=O)N/C(=C(\C#N)C(=O)c2ccccc2)[n+]2ccc(N(C)C)cc2)c([S-])cc1Cl     NCI-H522  35.6 µM (inactive)

// switching to the query compound
stdin: Given the entry C=C(Cl)C(Cl)(CBr)CCC(Cl)C(C)C (stereo not given) , report its measured GI50.
stdout: 5.93 µM (inactive)

Data credit: ChEMBL document CHEMBL1201862
